Biological target: human recombinant 5‐LOX (Homo sapiens)
Sequence (P09917 1-674): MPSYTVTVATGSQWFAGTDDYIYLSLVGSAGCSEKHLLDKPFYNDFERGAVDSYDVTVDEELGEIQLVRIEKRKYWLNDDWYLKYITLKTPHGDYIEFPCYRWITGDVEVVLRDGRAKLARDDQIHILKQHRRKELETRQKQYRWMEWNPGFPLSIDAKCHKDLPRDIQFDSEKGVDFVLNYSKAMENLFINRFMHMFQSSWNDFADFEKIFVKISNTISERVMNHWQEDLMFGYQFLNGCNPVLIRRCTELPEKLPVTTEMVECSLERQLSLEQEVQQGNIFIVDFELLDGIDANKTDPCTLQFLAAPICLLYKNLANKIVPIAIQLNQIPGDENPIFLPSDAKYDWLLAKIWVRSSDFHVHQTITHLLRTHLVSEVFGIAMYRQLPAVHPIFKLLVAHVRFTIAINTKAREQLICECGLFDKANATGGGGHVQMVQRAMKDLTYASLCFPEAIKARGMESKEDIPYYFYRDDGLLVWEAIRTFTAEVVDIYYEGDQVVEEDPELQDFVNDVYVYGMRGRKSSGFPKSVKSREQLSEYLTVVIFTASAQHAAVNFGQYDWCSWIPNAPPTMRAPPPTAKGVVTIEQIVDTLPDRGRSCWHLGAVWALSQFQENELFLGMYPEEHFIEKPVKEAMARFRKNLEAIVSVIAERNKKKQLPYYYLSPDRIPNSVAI
Assay: Human recombinant 5-LOX activity assay (cell-free)
Settings: 20 μM arachidonic acid
PROPERTY LABEL: pIC50
Give bare numbers, as −log10 of the molar value.

Q: Could you please provide reported pIC50 for O=[N+]([O-])c1cc([N+](=O)[O-])c(-c2ccccc2COc2cccc(C(F)(F)F)c2)cc1F [1 d] ? Thanks!
Ans: 5.47

###

Target: human recombinant LTC4S (Homo sapiens, UniProt Q16873)
Construct: expressed in transfected cells; host or cells: HEK293 cells stably expressing LTC4S; microsomal fraction
Sequence (Q16873 1-150): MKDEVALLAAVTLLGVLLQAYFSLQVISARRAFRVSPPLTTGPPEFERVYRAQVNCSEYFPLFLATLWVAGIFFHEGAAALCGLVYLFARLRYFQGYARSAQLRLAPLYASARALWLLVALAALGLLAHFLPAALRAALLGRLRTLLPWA
Test: Determination of LTC4 synthase activity in microsomes of HEK293 cells expressing LTC4S
Format: biochemical
pIC50: −log10 of the molar value.
Field: pIC50. Provide a value for each of the molecules that follow.

Worked examples follow.
# ENTRY SMILES, pIC50
measured = [
    ("COCCc1ccc(OCc2ccc(-c3cc(F)c([N+](=O)[O-])cc3[N+](=O)[O-])cc2)cc1", "< 4.00"),
    ("O=[N+]([O-])c1cc([N+](=O)[O-])c(-c2ccc(COc3cccc4ccccc34)cc2)cc1F", "< 4.00"),
]

Value sought for every listed molecule: pIC50.
1. O=[N+]([O-])c1cc([N+](=O)[O-])c(-c2ccc(COc3cccc(C(F)(F)F)c3)cc2)cc1F
2. O=[N+]([O-])c1cc([N+](=O)[O-])c(-c2ccc(OCc3ccccc3)cc2)cc1F

Ans:
1: 5.77; 2: < 4.00

###

Target: human recombinant LTC4S (Homo sapiens, UniProt Q16873)
Construct: expressed in transfected cells; host or cells: HEK293 cells stably expressing LTC4S; microsomal fraction
Sequence (Q16873 1-150): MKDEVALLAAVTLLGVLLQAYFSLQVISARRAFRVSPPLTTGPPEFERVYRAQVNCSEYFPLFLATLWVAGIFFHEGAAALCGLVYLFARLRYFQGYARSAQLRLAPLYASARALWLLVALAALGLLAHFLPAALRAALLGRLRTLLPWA
Assay: Determination of LTC4 synthase activity in microsomes of HEK293 cells expressing LTC4S
Type: biochemical
Settings: microsomes of HEK293 cells expressing human recombinant LTC4S, 1 μM LTA4-methyl ester; read-out: IC50 cell‐free LTC4S
PROPERTY LABEL: IC50 (nM)
Numbers only, in nM.

Q: Could you please provide reported IC50 for O=[N+]([O-])c1cc([N+](=O)[O-])c(-c2ccccc2COc2cccc(C(F)(F)F)c2)cc1F ? Thanks!
Ans: 930
